system: Escherichia coli TOP10; experiment: shrunken log2 fold change of peptide-encoding DNA abundance (4.5 h post-induction vs induction); higher = less antimicrobial activity (less host growth inhibition); settings: time post-induction: 4.5 h; library: site-saturation at positions 5, 18, 19, 20
QUANTITY MEASURED: shrunken log2 fold change
Lab note: jot the number down without any unit.

Answered examples (4):
SEQUENCE ENTRY: RRIRTRPPRLPRPRPRPIENPRP
shrunken log2 fold change: 0.0452
//
SEQUENCE ENTRY: RRIRSRPPRLPRPRPRPNWCPRP
shrunken log2 fold change: 0.0144
//
SEQUENCE ENTRY: RRIRGRPPRLPRPRPRPAVNPRP
shrunken log2 fold change: 0.402
//
SEQUENCE ENTRY: RRIRDRPPRLPRPRPRPTWSPRP
shrunken log2 fold change: 0.235

stdin: Give shrunken log2 fold change (Escherichia coli TOP10) of the following sequence: "RRIRNRPPRLPRPRPRPWHAPRP"
stdout: -0.0713

stdin: What do you get for "RRIRRRPPRLPRPRPRPLVYPRP" ?
stdout: -0.325

stdin: Now consider "RRIRGRPPRLPRPRPRPSLPPRP" and answer again.
stdout: 0.178

stdin: Note, next up: "RRIRARPPRLPRPRPRPQEGPRP"
stdout: -0.0912

---

tested on: Escherichia coli TOP10; test: shrunken log2 fold change of peptide-encoding DNA abundance (4.5 h post-induction vs induction); higher = less antimicrobial activity (less host growth inhibition); conditions: time post-induction: 4.5 h; library: site-saturation at positions 5, 18, 19, 20
QUANTITY MEASURED: shrunken log2 fold change
Just the number, please.

Here are 6 sequences together with their reported answers.
SEQUENCE ENTRY: RRIRMRPPRLPRPRPRPKPEPRP
shrunken log2 fold change: 0.0854
--
SEQUENCE ENTRY: RRIRNRPPRLPRPRPRPDWAPRP
shrunken log2 fold change: -0.0406
--
SEQUENCE ENTRY: RRIRNRPPRLPRPRPRPLFRPRP
shrunken log2 fold change: -0.266
--
SEQUENCE ENTRY: RRIRPRPPRLPRPRPRPGAEPRP
shrunken log2 fold change: 0.798
--
SEQUENCE ENTRY: RRIRWRPPRLPRPRPRPLPDPRP
shrunken log2 fold change: 0.672
--
SEQUENCE ENTRY: RRIRCRPPRLPRPRPRPTEHPRP
shrunken log2 fold change: 0.00581

stdin: Given "RRIRMRPPRLPRPRPRPARYPRP" , state its recorded shrunken log2 fold change.
stdout: 0.581

stdin: Item: "RRIRCRPPRLPRPRPRPWLTPRP"
stdout: -0.117

stdin: Could you do the same for "RRIRLRPPRLPRPRPRPPKHPRP" , please?
stdout: 0.117

stdin: # repeat for "RRIRYRPPRLPRPRPRPWTNPRP"
stdout: -0.00804

stdin: // repeat for "RRIRERPPRLPRPRPRPMGCPRP" and report
stdout: 0.111

---

tested on: Escherichia coli TOP10; assay: shrunken log2 fold change of peptide-encoding DNA abundance (4.5 h post-induction vs induction); higher = less antimicrobial activity (less host growth inhibition); conditions: time post-induction: 4.5 h; library: site-saturation at positions 5, 18, 19, 20;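 also: peptides expressed intracellularly from a pBAD plasmid library in pooled LB shake-flask culture, induced with 0.3% L-arabinose, DNA abundance read by NGS, three biological replicates, DESeq2 with apeglm shrinkage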
Items are presented alongside their recorded shrunken log2 fold change.
Quick one: just the number, no unit, thanks!

Worked cases, shrunken log2 fold change given:
SEQUENCE ENTRY: RRIRFRPPRLPRPRPRPNKHPRP
shrunken log2 fold change: -0.348
//
SEQUENCE ENTRY: RRIRARPPRLPRPRPRPDQNPRP
shrunken log2 fold change: 0.489
//
SEQUENCE ENTRY: RRIRHRPPRLPRPRPRPVCFPRP
shrunken log2 fold change: -0.0341

stdin: Report shrunken log2 fold change for "RRIRWRPPRLPRPRPRPEFGPRP" please.
stdout: 0.393

stdin: Let us now turn to "RRIRPRPPRLPRPRPRPYHQPRP"
stdout: 0.0122

stdin: Item: "RRIRVRPPRLPRPRPRPWTIPRP"
stdout: -0.281

stdin: Another: "RRIRTRPPRLPRPRPRPHGQPRP"
stdout: -0.0788

stdin: Thanks! And "RRIRSRPPRLPRPRPRPCYYPRP" ?
stdout: -0.571
